- measurement.target: recombinant cynomolgus PILRB (cynomolgus monkey)
- assay.name: SPR, Carterra LSA, antibody amine-coupled, kinetic fit
Record form. Attribute: Kd. Fill in for each entry.
I only need the number, in nM, no unit after it.

Given the entry X14 (antibody, human IgG4, V domains shown) VH: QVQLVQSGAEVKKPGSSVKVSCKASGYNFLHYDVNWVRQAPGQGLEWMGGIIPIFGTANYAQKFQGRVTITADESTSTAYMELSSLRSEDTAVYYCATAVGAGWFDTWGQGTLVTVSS VL: DIVMTQSPDSLAVSLGERATINCKSSQSVYFSPNNKNYLAWYQQKPGQPPKLLIYWASTRESGVPDRFSGSGSGTDFTLTISSLQAEDVAVYYCQQYFEEPYTFGQGTRLEIK , report its measured Kd.
0.2

Entry X18 (antibody, human IgG4, V domains shown) VH: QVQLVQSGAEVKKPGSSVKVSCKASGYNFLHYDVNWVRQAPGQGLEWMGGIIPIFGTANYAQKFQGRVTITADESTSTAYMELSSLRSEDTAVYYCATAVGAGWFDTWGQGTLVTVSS VL: DIVMTQSPDSLAVSLGERATINCKSSQSVWFDPNNKNYLAWYQQKPGQPPKLLIYWASTRESGVPDRFSGSGSGTDFTLTISSLQAEDVAVYYCQQYFEEPYTFGQGTRLEIK : reported Kd = ?
0.3

Could you share which Kd value was measured for X11 (antibody, human IgG4, V domains shown) VH: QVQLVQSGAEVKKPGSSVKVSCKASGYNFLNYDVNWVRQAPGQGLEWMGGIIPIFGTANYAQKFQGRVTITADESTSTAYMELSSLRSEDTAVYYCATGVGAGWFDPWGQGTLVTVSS VL: DIVMTQSPDSLAVSLGERATINCKSSQSVYFSENNKNYLAWYQQKPGQPPKLLIYWASTRESGVPDRFSGSGSGTDFTLTISSLQAEDVAVYYCQQYYEEPYTFGQGTRLEIK ?
0.5

Consider the binder X4 (antibody, human IgG4, V domains shown) VH: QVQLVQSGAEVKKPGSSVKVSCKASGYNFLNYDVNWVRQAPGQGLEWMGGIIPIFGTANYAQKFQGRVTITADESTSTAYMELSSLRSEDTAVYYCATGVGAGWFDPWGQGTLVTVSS VL: DIVMTQSPDSLAVSLGERATINCKSSQSVYFSPNNKNYLAWYQQKPGQPPKLLIYWASTRESGVPDRFSGSGSGTDFTLTISSLQAEDVAVYYCQQYFEEPYTFGQGTRLEIK and give its measured Kd.
0.3
